Test system: ES7 (Ewing's Sarcoma)
Assay: combination Emax (second highest fraction inhibited in the dose matrix, 72 h); higher = more inhibition; extreme values may be limits of the assay
observedProperty: combination Emax

>  <compound>
CC1(C)CCC(CN2CCN(c3ccc(C(=O)NS(=O)(=O)c4ccc(NCC5CCOCC5)c([N+](=O)[O-])c4)c(Oc4cnc5[nH]ccc5c4)c3)CC2)=C(c2ccc(Cl)cc2)C1 [Venetoclax] + C=CCn1c(=O)c2cnc(Nc3ccc(N4CCN(C)CC4)cc3)nc2n1-c1cccc(C(C)(C)O)n1 [AZD1775] (first compound max 1 µM, partner max 1 µM)

>  <observedProperty>
combination Emax

>  <readoutValue>
0.888

$$$$
>  <compound>
Cc1cc2ncnn2cc1Nc1ncc2c(n1)n(C1CCOCC1)c(=O)n2C [AZD7648] + O=C(c1cc(Cc2n[nH]c(=O)c3ccccc23)ccc1F)N1CCN(C(=O)C2CC2)CC1 [Olaparib] (first compound max 10 µM, 7x7, partner max 10 µM)

>  <observedProperty>
combination Emax

>  <readoutValue>
0.846

$$$$
>  <compound>
COc1cccc(OCCCN)c1-c1cc(Nc2cnc(C#N)cn2)n[nH]1 [Prexasertib] + Cc1cc2ncnn2cc1Nc1ncc2c(n1)n(C1CCOCC1)c(=O)n2C [AZD7648] (first compound max 1 µM, 7x7, partner max 10 µM)

>  <observedProperty>
combination Emax

>  <readoutValue>
0.876

$$$$
>  <compound>
Cn1cnc2c(F)c(Nc3ccc(Br)cc3Cl)c(C(=O)NOCCO)cc21 [Selumetinib] + C=CCn1c(=O)c2cnc(Nc3ccc(N4CCN(C)CC4)cc3)nc2n1-c1cccc(C(C)(C)O)n1 [AZD1775] (first compound max 10 µM, partner max 1 µM)

>  <observedProperty>
combination Emax

>  <readoutValue>
0.486

$$$$
>  <compound>
CN(CCO)CC[C@H](CSc1ccccc1)Nc1ccc(S(=O)(=O)NC(=O)c2ccc(N3CCC([C@@H](O)c4ccccc4-c4ccc(Cl)cc4)CC3)cc2)cc1S(=O)(=O)C(F)(F)F [AZD4320] + Cn1cnc2c(F)c(Nc3ccc(Br)cc3Cl)c(C(=O)NOCCO)cc21 [Selumetinib] (first compound max 1 µM, 7x7, partner max 3 µM)

>  <observedProperty>
combination Emax

>  <readoutValue>
0.984

$$$$
>  <compound>
Cc1nc(-c2cn3c(n2)-c2ccc(-c4cnn(C(C)(C)C(N)=O)c4)cc2OCC3)n(C(C)C)n1 [Taselisib] + O=C(Nc1ccc2[nH]nc(-c3ccncc3)c2c1)[C@@H]1CCN(CC(=O)N2CCN(c3ccc(-c4ncccn4)cc3)CC2)C1 [SCH772984] (first compound max 10 µM, 7x7, partner max 5 µM)

>  <observedProperty>
combination Emax

>  <readoutValue>
0.726

$$$$
>  <compound>
Cc1c2c(nn1C)CSCc1cc(n(C)n1)CSc1cc(c3ccccc3c1)OCCCc1c(C(=O)O)n(C)c3c-2c(Cl)ccc13 [AZD5991] + CC(=O)O[C@H]1C(=O)[C@@]2(C)[C@H]([C@H](OC(=O)c3ccccc3)[C@]3(O)C[C@H](OC(=O)[C@H](O)[C@@H](NC(=O)c4ccccc4)c4ccccc4)C(C)=C1C3(C)C)[C@]1(OC(C)=O)CO[C@@H]1C[C@@H]2O [Paclitaxel] (first compound max 1 µM, 7x7, partner max 3 µM)

>  <observedProperty>
combination Emax

>  <readoutValue>
0.958

$$$$
>  <compound>
CC(=O)c1c(C)c2cnc(Nc3ccc(N4CCNCC4)cn3)nc2n(C2CCCC2)c1=O [Palbociclib] + CC1(C)CCC(CN2CCN(c3ccc(C(=O)NS(=O)(=O)c4ccc(NCC5CCOCC5)c([N+](=O)[O-])c4)c(Oc4cnc5[nH]ccc5c4)c3)CC2)=C(c2ccc(Cl)cc2)C1 [Venetoclax] (first compound max 10 µM, 7x7, partner max 1 µM)

>  <observedProperty>
combination Emax

>  <readoutValue>
0.644

$$$$
>  <compound>
C[C@@H](c1ccc2nccn2c1)n1nnc2ncc(-c3cnn(C)c3)nc21 [Savolitinib] + Cc1c2c(nn1C)CSCc1cc(n(C)n1)CSc1cc(c3ccccc3c1)OCCCc1c(C(=O)O)n(C)c3c-2c(Cl)ccc13 [AZD5991] (first compound max 1 µM, 7x7, partner max 1 µM)

>  <observedProperty>
combination Emax

>  <readoutValue>
0.554

$$$$
>  <compound>
Cc1c2c(nn1C)CSCc1cc(n(C)n1)CSc1cc(c3ccccc3c1)OCCCc1c(C(=O)O)n(C)c3c-2c(Cl)ccc13 [AZD5991] + Cn1cnc2c(F)c(Nc3ccc(Br)cc3Cl)c(C(=O)NOCCO)cc21 [Selumetinib] (first compound max 1 µM, 7x7, partner max 3 µM)

>  <observedProperty>
combination Emax

>  <readoutValue>
0.759

$$$$
>  <compound>
CCc1c2c(nc3ccc(O)cc13)-c1cc3c(c(=O)n1C2)COC(=O)[C@]3(O)CC [SN-38] + CN(C)CCCOc1ccc(-c2ccc3ncc4c(c3c2)n(C2CCOCC2)c(=O)n4C)cn1 [AZD0156] (first compound max 0.3 µM, 7x7, partner max 1 µM)

>  <observedProperty>
combination Emax

>  <readoutValue>
1

$$$$
>  <compound>
C[C@@H](Oc1cc(-c2cnn(C3CCNCC3)c2)cnc1N)c1c(Cl)ccc(F)c1Cl [Crizotinib] + CC1=C(C(=CC=C1)Cl)NC(=O)C2=CN=C(S2)NC3=CC(=NC(=N3)C)N4CCN(CC4)CCO [Dasatinib] (first compound max 10 µM, 7x7, partner max 2 µM)

>  <observedProperty>
combination Emax

>  <readoutValue>
0.883

$$$$
>  <compound>
O=C(c1cc(Cc2n[nH]c(=O)c3ccccc23)ccc1F)N1CCN(C(=O)C2CC2)CC1 [Olaparib] + CC1(C)CCC(CN2CCN(c3ccc(C(=O)NS(=O)(=O)c4ccc(NCC5CCOCC5)c([N+](=O)[O-])c4)c(Oc4cnc5[nH]ccc5c4)c3)CC2)=C(c2ccc(Cl)cc2)C1 [Venetoclax] (first compound max 10 µM, 7x7, partner max 1 µM)

>  <observedProperty>
combination Emax

>  <readoutValue>
0.95

$$$$
